Reference source for all entries: patent US12257228B2

experiment.notes: Budiodarone concentrations in plasma over time after different single doses (FIG. 1)
Format: in vivo, patients
protocol.conditions: human, plasma, oral, high single dose (about 800 mg to 1200 mg), see FIG. 1; read-out: Cmax
property: Cmax

Any idea what Cmax was measured for CC[C@H](C)OC(=O)Cc1oc2ccccc2c1C(=O)c1cc(I)c(OCCN(CC)CC)c(I)c1 [budiodarone] ?
≤ 350 ng/mL

---

experiment.notes: Budiodarone concentrations in plasma over time after different single doses (FIG. 1)
Assay type: in vivo, patients
protocol.conditions: human, plasma, oral; single dose at 800 mg or 1,000 mg
Description: It is noted that budiodarone concentrations used in the examples below include both the free acid and the free base versions of budiodarone. In this example, plasma concentrations of budiodarone were evaluated using different single-dosing amounts of the drug. […] The resulting data was placed on a graph and the data for each concentration provided for both a Cmax for the dose employed as well as a trough value at 6 hours.
property: concentration at 6 h

Given the entry `CC[C@H](C)OC(=O)Cc1oc2ccccc2c1C(=O)c1cc(I)c(OCCN(CC)CC)c(I)c1` , report its measured concentration at 6 h.
~50 ng/mL

---

experiment.notes: Budiodarone concentrations in plasma over time after different single doses (FIG. 1)
Assay type: in vivo, patients
protocol.conditions: human, plasma, oral, 1000 mg; bolus such as 1,000 mg; read-out: plasma concentration in about 8 hours
property: concentration at 8 h

# input compound: `CC[C@H](C)OC(=O)Cc1oc2ccccc2c1C(=O)c1cc(I)c(OCCN(CC)CC)c(I)c1` ; wanted: its concentration at 8 h
< 20 ng/mL

---

experiment.notes: Trough plasma concentration of budiodarone during b.i.d. dosing cycles and washout
Type: in vivo, patients
protocol.conditions: human, plasma, 800 mg b.i.d.; doses approximately 12 hours apart; read-out: Trough Pk levels ng/ml in plasma
property: concentration at 12 h (ng/mL)
Write the answer as a number in ng/mL, unit excluded.

Please report the recorded concentration at 12 h for CC[C@H](C)OC(=O)Cc1oc2ccccc2c1C(=O)c1cc(I)c(OCCN(CC)CC)c(I)c1 [budiodarone] .
19.8

---

experiment.notes: Budiodarone concentrations in plasma over time after different single doses (FIG. 1)
Assay type: in vivo, patients
protocol.conditions: human, plasma, oral; single dose at 800 mg or 1,000 mg; read-out: plasma concentration at 8 hours
Description: It is noted that budiodarone concentrations used in the examples below include both the free acid and the free base versions of budiodarone. In this example, plasma concentrations of budiodarone were evaluated using different single-dosing amounts of the drug. […] The resulting data was placed on a graph and the data for each concentration provided for both a Cmax for the dose employed as well as a trough value at 6 hours.
property: concentration at 8 h

Using the record for CC[C@H](C)OC(=O)Cc1oc2ccccc2c1C(=O)c1cc(I)c(OCCN(CC)CC)c(I)c1 [budiodarone] , report its concentration at 8 h.
≥ 0.015 µg/mL
